The reported numbers originate from PubChem BioAssay (NCI).

# System: SK-MEL-28 melanoma
# protocol description: NCI tumour cell line growth inhibition, 48 h; in the data active means GI50 below about 0.43 µM; inactive means the rest
Possible outcomes: Y (active), N (inactive)

compound | assigned category
COc1ccc(C(O)c2cc3c(N)c(C(=O)Nc4cccc(Cl)c4C)sc3nc2C)cc1 (configuration not stated) | N
CCCCCCCCCCCCCC[P+](CCCCCC)(CCCCCC)CCCCCC | Y
CNc1nc(C)c(-c2nc(Nc3cccc(S(N)(=O)=O)c3)ncc2F)s1 | Y
COc1cc([C@@H]2c3cc4c(cc3C(Br)[C@H]3COC(=O)[C@H]23)OCO4)cc(OC)c1OC (some centres not stated) | N
Cc1ccccc1S(=O)(=O)N1[C@H](c2ccc(Cl)cc2)C(C(=O)N[C@@H](Cc2ccccc2)C(N)=O)=C[C@@H]1C(C)(C)C | N
O=C(Nc1ccc(Cl)cc1)c1cc2c(cc1O)[nH]c1ccccc12 | N
N#Cc1c2ccccc2c2n1-c1ccccc1OC(c1ccccc1)C2=O (configuration not stated) | N
O=CN1N=C(c2ccc(Nc3ccnc4cc(Cl)ccc34)cc2)CC1c1ccccc1 (configuration not stated) | N
OCCCCC#Cc1ccccc1C#Cc1ccccc1F | N
CCOC(=O)c1cc2c(n1Cc1cc(OC)cc(OC)c1)-c1oncc1CCC2 | Y
Cc1nc2cncc(C#Cc3cncc(C(=O)Nc4ccc(CN5CCN(C)CC5)c(C(F)(F)F)c4)c3)c2nc1C | Y
COc1ccc(Nc2ccnc(NCCNc3ccnc4cc(Cl)ccc34)n2)cc1 | N
